- target: UniProt:G2LDI3
- Sequence (G2LDI3 140-614): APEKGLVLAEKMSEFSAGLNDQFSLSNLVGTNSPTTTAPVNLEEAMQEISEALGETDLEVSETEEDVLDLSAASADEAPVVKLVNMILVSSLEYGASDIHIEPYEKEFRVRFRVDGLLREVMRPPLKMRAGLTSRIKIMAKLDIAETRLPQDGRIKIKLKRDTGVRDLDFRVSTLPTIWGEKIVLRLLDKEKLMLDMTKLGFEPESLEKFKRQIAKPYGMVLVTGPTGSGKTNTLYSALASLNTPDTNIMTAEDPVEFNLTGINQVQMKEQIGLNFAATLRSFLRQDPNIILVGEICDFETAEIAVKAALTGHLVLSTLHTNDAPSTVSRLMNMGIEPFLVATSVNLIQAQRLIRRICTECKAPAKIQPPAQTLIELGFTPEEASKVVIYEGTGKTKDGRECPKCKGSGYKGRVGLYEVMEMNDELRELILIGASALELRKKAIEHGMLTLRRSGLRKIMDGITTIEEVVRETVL
- protocol_summary: CtPilB ATPase malachite green assay
- Assay type: biochemical
- condition_details: read-out: % Inhib. 30 μM
Mark Yes for reported inhibition at 30 µM of 80% or greater; mark No for anything smaller.

> print(dat)
                              compound  class.label
1   COc1cccc(O)c1/C=N/NC(=O)[C@H](N)CO           No
2  N[C@H](CO)C(=O)N/N=C/c1ccc(O)c(O)c1           No
3    N[C@H](CO)C(=O)N/N=C/c1c(O)cccc1O          Yes
4          N[C@H](CO)C(=O)NNCc1ccccc1O           No
5     N[C@H](CO)C(=O)N/N=C/c1cccc(O)c1           No

Data request: Please tell me: is the compound "N[C@H](CO)C(=O)N/N=C/c1ccc(O)cc1O" at or over 80% in terms of inhibition at 30 µM?
Data returned: No

Data request: Also "Cl.N[C@H](CO)C(=O)N/N=C/c1c(O)ccc(O)c1O" , if possible.
Data returned: Yes

Data request: Also "N[C@H](CO)C(=O)N/N=C/c1ccccc1O" , if possible.
Data returned: No

Data request: Also "N[C@H](CO)C(=O)NNCc1c(O)cccc1O" , if possible.
Data returned: No

Data request: Also Cl.N[C@H](CS)C(=O)N/N=C/c1c(O)cccc1O [11c] , if possible.
Data returned: Yes

Data request: Also "N[C@H](CO)C(=O)N/N=C/c1cccc(O)c1O" , if possible.
Data returned: Yes

Data request: Also "N[C@H](CO)C(=O)N/N=C/c1ccc(O)cc1" , if possible.
Data returned: No

Data request: Also C[C@@H](N)C(=O)N/N=C/c1c(O)cccc1O [11b] , if possible.
Data returned: Yes

Data request: Also "NNC(=O)[C@@H](N)CO" , if possible.
Data returned: No

Data request: Also NCC(=O)N/N=C/c1c(O)cccc1O [11a] , if possible.
Data returned: Yes

Data request: Also "N[C@H](CO)C(=O)NNCc1ccc(O)cc1O" , if possible.
Data returned: No

Data request: Also "N[C@H](CO)C(=O)N/N=C/c1ccc(O)c(O)c1O" , if possible.
Data returned: Yes

Data request: Also "N[C@H](CO)C(=O)NNCc1cc(O)ccc1O" , if possible.
Data returned: No
